# target-entity: Heat shock protein HSP 90-alpha (Homo sapiens) (UniProt P07900)
# test-protocol: Hsp90 blockade concentration-response – dose response (AID 712)
# details: Hsp90 inhibition assay
Activity calls are given as the source filed them. How the calls were made is not given here.
Give your call using only these classes: active, inactive

CCOc1cc(N2CCOCC2)c(OCC)cc1NC1=NCCCCC1 | active
COc1ccc(-n2nc3c(c2NC(=O)c2ccc(Br)cc2)CS(=O)C3)cc1 (stereo unspecified) | inactive
CC(OC(=O)c1cccs1)C(=O)NCc1cccs1 (stereo unspecified) | inactive
CCCc1cc2c(cc1NS(=O)(=O)c1ccc(CCNC(C)=O)cc1)OCO2 | inactive
O=C(O)CCC(=O)NCc1ccc2[nH]c3c(c2c1)CCCC3 | inactive

What is the recorded call for this compound in the test? `CCOC(=O)N1CCC(NC(=O)CSCc2nc(-c3sccc3C)oc2C)CC1`
inactive

###

# target-entity: UniProt P07900
# test-protocol: Hsp90 blockade concentration-response – dose response (AID 712)
# details: Hsp90 inhibition assay
Activity calls are given as the source filed them. How the calls were made is not given here.
Give your call using only these classes: Yes (active), No (inactive)

Completed entries (count: 5):
CC(=O)CCc1c(C)[nH]c2ccccc2c1=O | No
Cc1ccccc1OCC(O)Cn1c(NCCN(C)C)nc2c1c(=O)n(C)c(=O)n2C (stereo unspecified) | No
CC(=O)c1cccc(NC(=O)CSc2nnc(-c3ccc(S(=O)(=O)N4CCCC4)cc3)o2)c1 | No
O=C(O)c1ccc2c3c(ncnc13)-c1ccccc1C2=O | Yes
CCOc1ccc(NCC(=O)Nc2ccc(C)cc2C)cc1 | Yes

Field: next molecule
What is the recorded call for this molecule in the test? `Cc1ccc(OC(=O)c2ccc(N)cc2O)cc1`
No

###

# target-entity: Heat shock protein HSP 90-alpha (Homo sapiens) (UniProt P07900)
# test-protocol: Hsp90 blockade concentration-response – dose response (AID 712)
# details: Hsp90 inhibition assay
Activity calls are given as the source filed them. How the calls were made is not given here.
Give your call using only these classes: active, inactive

Completed entries (count: 8):
Oc1ccc(-c2onc(C(F)(F)F)c2-c2cscn2)c(O)c1 | active
COc1ccc(C2CC(=O)C3=C(C2)Nc2ncnn2C3c2ccccc2)cc1 (centres undefined) | inactive
CCN(CC)CC(O)c1ccnc2c(O)cccc12 (centres undefined) | inactive
N#Cc1c(N2CCCC2)nc(N)c2c(N)nc(N3CCCC3)cc12 | active
Cc1nc(SCC(=O)c2ccc(O)cc2O)n[nH]1 | inactive
O=[N+]([O-])c1cc(O)cc2cccnc12 | active
Nc1ccc(Cc2ccccc2)c(O)c1 | inactive
CCOc1ccc2ccccc2c1-c1cc(NS(=O)(=O)c2cc(Cl)ccc2Cl)ccc1NC(=O)OC(C)(C)C | inactive

What is the recorded call for this molecule in the test? `CCOC(=O)c1c(C)[nH]c2ccc(O)cc12`
inactive

What about `COc1ccc(OC)c(-n2c(C)nc3cc(C(=O)O)ccc32)c1` ?
active

What about CC(C)NCCCC(C)Nc1cc(O)cc2cccnc12 (centres undefined) ?
active

###

# target-entity: UniProt:P07900
# test-protocol: Hsp90 blockade concentration-response – dose response (AID 712)
# details: Hsp90 inhibition assay
Active and inactive are the calls of the source. The rule behind the calls is not given here.
quantity-name: IC50

IC50 for `COc1cc(NCCCC(C)=O)c2nccc(Cl)c2c1` ?
> 50 µM (inactive)

What about `O=[N+]([O-])c1cccc(S(=O)(=O)Nc2ccc(O)c(-c3ccccc3O)c2)c1` ?
> 50 µM (inactive)

What about CCSCCOC(=O)C1=C(C)NC(=O)NC1c1ccccc1 (stereo unspecified) ?
> 50 µM (inactive)

What about `Oc1cccc2cccnc12` ?
> 50 µM (inactive)

What about `CC(=O)Oc1cc2c(C(=O)NCCN3CCOCC3)c(C)oc2c2ccccc12` ?
19.7 µM

Attribution: PubChem BioAssay AID712
